Ref: patent US9663475B2

target_system: cathepsin D isolated from the human liver (Homo sapiens (Human))
Sequence (P07339 65-161): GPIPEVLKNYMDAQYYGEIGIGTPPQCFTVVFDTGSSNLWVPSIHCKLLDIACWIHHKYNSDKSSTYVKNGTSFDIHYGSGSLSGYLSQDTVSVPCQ
Sequence (P07339 169-412): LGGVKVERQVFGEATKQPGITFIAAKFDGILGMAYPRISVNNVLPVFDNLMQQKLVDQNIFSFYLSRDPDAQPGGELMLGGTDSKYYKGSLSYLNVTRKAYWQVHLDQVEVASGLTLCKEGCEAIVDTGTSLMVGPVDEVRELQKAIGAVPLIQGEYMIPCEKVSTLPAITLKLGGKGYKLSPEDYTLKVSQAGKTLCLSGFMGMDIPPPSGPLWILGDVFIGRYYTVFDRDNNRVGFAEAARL
assay_name: In-vitro fluorescence assay for identification of cathepsin D inhibitors
applied_conditions: human liver cathepsin D 1.4 nM, pH 5.5, substrate 5 μM; read-out: Cath D IC50
pIC50: −log10 of the molar value.
The following molecules are listed with their measured pIC50 values.
result_type: pIC50

| molecule | result_type | number |
| --- | --- | --- |
| NC1=Nc2cc(-c3ccccc3)ccc2CN1C1Cc2ccccc2C1 | pIC50 | 5.66 |
| NC1=Nc2cc(Cl)ccc2CN1C1Cc2ccccc2C1 | pIC50 | 6.02 |
| NC1=Nc2cc(C(=O)N3CCOCC3)ccc2CN1C1Cc2ccccc2C1 [Compound A26] | pIC50 | 5.52 |
| NC1=Nc2cccc(Cl)c2CN1C1Cc2ccccc2C1 | pIC50 | 5.08 |
| NC1=Nc2ccccc2CN1C1Cc2ccccc2C1 [Compound A1] | pIC50 | 5.57 |
